- assayed-system: High affinity choline transporter 1 (Homo sapiens, UniProt Q9GZV3, L531A/V532A)
- test-description: Inhibition of human CHT […] mutant expressed in HEK293 cells assessed as remaining transporter activity in presence of 100 nM [3H]choline by [3H]choline uptake assay
- Type: cell-based
value-kind: log10(IC50) (log10 of the value in µM)
Transform log10 | Measure IC50 | Unit µM

molecule="COc1ccc(C(=O)NC(C)Cc2ccccn2)cc1OC1CCN(C(C)C)CC1 (stereo not given)" test_result=0.61

Given the molecule COc1ccc(C(=O)NCCN2CCCC2)cc1OC1CCN(C(C)C)CC1 and test system High affinity choline transporter 1 (Homo sapiens, UniProt Q9GZV3, L531A/V532A), the measured log10(IC50) is 0.33

###

- test-description: Hepatic clearance in mouse liver microsomes
- Format: ADME
value-kind: CLhep predicted (mL/min/kg)
Enter your answer as a number in mL/min/kg; do not include the unit.

molecule=COc1ccc(C(=O)NCc2cc(C(C)C)no2)cc1OC1CCN(C(C)C)CC1 test_result=80.7
molecule=COc1ccc(C(=O)NCc2cc(C(C)C)no2)cc1OCCN1CCCCC1 test_result=58.4

Lab note: COc1ccc(C(=O)NCc2cc(C(C)C)no2)cc1OC1CCN(C)CC1 gave CLhep predicted of 29.4

Lab note: CCn1nc(C)c(CNC(=O)c2ccc(OC)c(OC3CCN(C(C)C)CC3)c2)c1C gave CLhep predicted of 22.4

Lab note: COc1ccc(C(=O)NCc2csc(C)n2)cc1OC1CCN(C(C)C)CC1 gave CLhep predicted of 82.4

Lab note: COc1ccc(C(=O)NC(C)Cc2ccccn2)cc1OC1CCN(C(C)C)CC1 (stereo unspecified) gave CLhep predicted of 48.8

###

The reader will find reported Activity values listed item by item below.
- Test system: High affinity choline transporter 1 (Homo sapiens), Q9GZV3 [L531A,V532A]
- Sequence (whole entry): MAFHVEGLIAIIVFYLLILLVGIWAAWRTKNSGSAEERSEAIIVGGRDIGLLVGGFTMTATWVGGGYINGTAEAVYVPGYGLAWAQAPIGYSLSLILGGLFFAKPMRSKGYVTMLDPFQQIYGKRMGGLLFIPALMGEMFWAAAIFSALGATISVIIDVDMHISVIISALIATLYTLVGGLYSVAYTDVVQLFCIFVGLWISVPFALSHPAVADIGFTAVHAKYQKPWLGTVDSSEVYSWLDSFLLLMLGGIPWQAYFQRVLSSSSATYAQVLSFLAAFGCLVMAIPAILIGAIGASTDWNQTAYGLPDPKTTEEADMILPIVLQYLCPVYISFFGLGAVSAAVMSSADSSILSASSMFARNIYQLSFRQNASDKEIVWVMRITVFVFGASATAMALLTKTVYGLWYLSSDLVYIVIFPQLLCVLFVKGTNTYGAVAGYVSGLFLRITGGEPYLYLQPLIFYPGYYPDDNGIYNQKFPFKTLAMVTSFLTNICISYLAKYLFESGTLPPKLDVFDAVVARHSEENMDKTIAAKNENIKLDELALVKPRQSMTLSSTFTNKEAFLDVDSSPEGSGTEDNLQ
- test-description: Inhibition of human CHT […] mutant expressed in HEK293 cells assessed as remaining transporter activity at 5 uM in presence of 100 nM [3H]choline by [3H]choline uptake assay
- Format: cell-based

Example entries begin here.
compound="COc1ccc(C(=O)NCc2cc(C(C)C)no2)cc1OC(C)CN(C)C (stereo not drawn)" assayed_system="High affinity choline transporter 1 (Homo sapiens), Q9GZV3 [L531A,V532A]" test_result=59.7%
compound=COc1ccc(C(=O)NCc2cc(C)n(C)n2)cc1OC1CCN(C(C)C)CC1 assayed_system="High affinity choline transporter 1 (Homo sapiens), Q9GZV3 [L531A,V532A]" test_result=49.9%
compound=COc1ccc(C(=O)NCc2cc(C(C)C)no2)cc1OCCN1CCOCC1 assayed_system="High affinity choline transporter 1 (Homo sapiens), Q9GZV3 [L531A,V532A]" test_result=36.7%
compound=COc1ccc(C(=O)NCc2ccncn2)cc1OC1CCN(C(C)C)CC1 assayed_system="High affinity choline transporter 1 (Homo sapiens), Q9GZV3 [L531A,V532A]" test_result=87.7%
compound=CCn1cc(CNC(=O)c2ccc(OC)c(OC3CCN(C(C)C)CC3)c2)cn1 assayed_system="High affinity choline transporter 1 (Homo sapiens), Q9GZV3 [L531A,V532A]" test_result=41.8%

Lab note: COc1ccc(C(=O)NCCN2CCCC2)cc1OC1CCN(C(C)C)CC1 gave Activity of 37.4%

Lab note: COc1ccc(C(=O)NCc2csc(C)n2)cc1OC1CCN(C(C)C)CC1 gave Activity of 42.6%

Lab note: COc1ccc(C(=O)NCc2cc(C(C)C)no2)cc1OC1CCCC1 gave Activity of 82%

###

- Tested on: High affinity choline transporter 1 (Homo sapiens), Q9GZV3 [L531A,V532A]
- test-description: Inhibition of human CHT […] mutant expressed in HEK293 cells assessed as remaining transporter activity at 5 uM in presence of 10 uM [3H]choline by [3H]choline uptake assay
- Type: cell-based
Doc: threshold 20% (exclusive). Items with Activity beneath it return rule met; others return rule not met.

Use these answered entries as a reference point.
compound=COc1ccc(C(=O)NCc2cnn(C)c2)cc1OC1CCN(C(C)C)CC1 class_assignment="rule not met"
compound="COc1ccc(C(=O)NCc2cc(C(C)C)no2)cc1OC1CCCN(C)C1 (configuration not stated)" class_assignment="rule met"
compound=COc1ccc(C(=O)NCc2ccncn2)cc1OC1CCN(C(C)C)CC1 class_assignment="rule not met"
compound=COc1ccc(C(=O)NCc2cc(C(C)C)no2)cc1OC1CCN(C)CC1 class_assignment="rule met"
compound=CCn1nc(C)c(CNC(=O)c2ccc(OC)c(OC3CCN(C(C)C)CC3)c2)c1C class_assignment="rule met"

Activity under 20%? Item: COc1ccc(C(=O)NCc2ccc(C)s2)cc1OC1CCN(C(C)C)CC1
rule not met

Activity under 20%? Item: COc1ccc(C(=O)NCc2cc(C)n(C)n2)cc1OC1CCN(C(C)C)CC1
rule not met

Activity under 20%? Item: COc1ccc(C(=O)NCc2csc(C)n2)cc1OC1CCN(C(C)C)CC1
rule met

Activity under 20%? Item: COc1ccc(C(=O)NCc2cc(C(C)C)no2)cc1OC1CCCC1
rule not met

Activity under 20%? Item: COc1ccc(C(=O)NCc2nc(C)cs2)cc1OC1CCN(C(C)C)CC1
rule met

Activity under 20%? Item: COc1ccc(C(=O)NCc2cc(C(C)C)no2)cc1OCC(C)C
rule not met

Activity under 20%? Item: CCn1cc(CNC(=O)c2ccc(OC)c(OC3CCN(C(C)C)CC3)c2)cn1
rule not met

###

- assayed-system: High affinity choline transporter 1 (Homo sapiens, UniProt Q9GZV3, L531A/V532A)
- test-description: Inhibition of human CHT […] mutant expressed in HEK293 cells assessed as remaining transporter activity in presence of 100 nM [3H]choline by [3H]choline uptake assay
- Assay type: cell-based
Doc: threshold 5 µM (exclusive). Items with IC50 beneath it return 1; others return -1.

compound=COc1ccc(C(=O)NCc2cc(C)n(C)n2)cc1OC1CCN(C(C)C)CC1 assayed_system="High affinity choline transporter 1 (Homo sapiens, UniProt Q9GZV3, L531A/V532A)" class_assignment=-1

IC50 under 5 µM? Item: CCn1nc(C)c(CNC(=O)c2ccc(OC)c(OC3CCN(C(C)C)CC3)c2)c1C
1

IC50 under 5 µM? Item: COc1ccc(C(=O)NCc2nc(C)cs2)cc1OC1CCN(C(C)C)CC1
1

IC50 under 5 µM? Item: COc1ccc(C(=O)NCc2cc(C(C)C)no2)cc1OC1CCCN(C)C1 (stereo not drawn)
1

IC50 under 5 µM? Item: CCn1cc(CNC(=O)c2ccc(OC)c(OC3CCN(C(C)C)CC3)c2)cn1
-1

IC50 under 5 µM? Item: COc1ccc(C(=O)NCc2cc(C(C)C)no2)cc1OCCN1CCCCC1
1

IC50 under 5 µM? Item: COc1ccc(C(=O)NCc2cc(C(C)C)no2)cc1OCCN1CCOCC1
-1

###

- Tested on: High affinity choline transporter 1 (Homo sapiens), Q9GZV3 [L531A,V532A]
- test-description: Inhibition of human CHT […] mutant expressed in HEK293 cells assessed as remaining transporter activity at 5 uM in presence of 100 nM [3H]choline by [3H]choline uptake assay
- Assay type: cell-based
value-kind: Activity (%)
Enter your answer as a number in %; do not include the unit.

Example entries begin here.
compound="COc1ccc(C(=O)NCc2cc(C(C)C)no2)cc1OC1CCCN(C)C1 (stereo not given)" unit_of_measure=% test_result=51.7
compound="COc1ccc(C(=O)NC(C)Cc2ccccn2)cc1OC1CCN(C(C)C)CC1 (stereo not given)" unit_of_measure=% test_result=46.3
compound=COc1ccc(C(=O)NCc2cc(C(C)C)no2)cc1O unit_of_measure=% test_result=86.2

Lab note: COc1ccc(C(=O)NCc2cc(C(C)C)no2)cc1OC1CCN(C)CC1 gave Activity of 3.1

Lab note: COc1ccc(C(=O)NCc2cc(C(C)C)no2)cc1OC1CCNCC1 gave Activity of 51.5

Lab note: COc1ccc(C(=O)NCc2cc(C(C)C)no2)cc1OC1CCCCC1 gave Activity of 83.2
